Recorded flash point determines the label; the label ranges are low bin: < 60 °C; mid bin: ≥ 60 °C and < 100 °C; high bin: ≥ 100 °C

INSERT INTO assay_data (molecule, label_value) VALUES
  ('CCN1CCOCC1', 'low bin'),
  ('Nc1ccc(Cl)cc1', 'high bin'),
  ('CC1(C2CCC3(C)OC3C2)CO1 (stereo not given) [1-methyl-4-(2-methyloxiran-2-yl)-7-oxabicyclo[4.1.0]heptane]', 'high bin'),
  ('CCC[CH2][Sn]([CH2]CCC)([O]C(C)=O)[O]C(C)=O [[acetyloxy(dibutyl)stannyl] acetate]', 'high bin'),
  ('O=C(O)c1cccnc1', 'high bin'),
  ('CC(C)=CCCC(C)CC=O (stereo not given)', 'mid bin'),
  ('CCCCCCCCCS', 'mid bin'),
  ('CC1CCC(O)CC1 (stereo not given)', 'mid bin'),
  ('CCC1(c2ccccc2)C(=O)NC(=O)NC1=O', 'high bin'),
  ('CCON=O', 'low bin'),
  ('C=CC(=O)OCC(CC)CC [2-ethylbutyl prop-2-enoate]', 'low bin'),
  ('CCCCCCCCCCCCCCCCCC(=O)[O-].[Cl-].[Cl-].[Cl-].[Cl-].[Cr+3].[Cr+3].[OH-] [chromium(3+);octadecanoate;tetrachloride;hydroxide]', 'low bin'),
  ('O=C(O)CBr', 'high bin'),
  ('CC(N)CN (stereo not given)', 'low bin'),
  ('CC(CO)CO', 'high bin'),
  ('c1ccncc1', 'low bin'),
  ('CCOC(=O)CC(C)O (stereo not given) [ethyl 3-hydroxybutanoate]', 'mid bin'),
  ('CCCCCCCOC(=O)c1ccccc1C(=O)OCCCCCCC [diheptyl benzene-1,2-dicarboxylate]', 'high bin'),
  ('C[Si](C)(C)O[Si](C)(O[Si](C)(C)C)O[Si](C)(C)C [trimethyl-[methyl-bis(trimethylsilyloxy)silyl]oxysilane]', 'mid bin');
